experiment: MDCK A-B passive permeability; type: in vitro ADME, canine; settings: dog
Readout: Papp A→B at 90 min, 1 µM
Write the quantity with the unit trailing the number.

Prompt: Field request: Papp A→B at 90 min, 1 µM | item: Cc1cc(=O)n(-c2ccccc2)n1C [Antipyrine]
Completion: 32.8 ×10⁻⁶ cm/s

* * *

assay: NHP CSF-to-plasma Kp,uu experiment; assay type: in vivo, cynomolgus monkeys; conditions: cynomolgus, cynomolgus monkey, intravenous
Readout: Kp uu at 1 h

Prompt: Field request: Kp uu at 1 h | item: Cc1cc(=O)n(-c2ccccc2)n1C [Antipyrine]
Completion: 1

* * *

target: MDR1 (Homo sapiens); assay: NIH MDR1-MDCKI transwell efflux assay; assay type: in vitro ADME; settings: human, MDCK-MDR1
Sequence (P08183 whole entry): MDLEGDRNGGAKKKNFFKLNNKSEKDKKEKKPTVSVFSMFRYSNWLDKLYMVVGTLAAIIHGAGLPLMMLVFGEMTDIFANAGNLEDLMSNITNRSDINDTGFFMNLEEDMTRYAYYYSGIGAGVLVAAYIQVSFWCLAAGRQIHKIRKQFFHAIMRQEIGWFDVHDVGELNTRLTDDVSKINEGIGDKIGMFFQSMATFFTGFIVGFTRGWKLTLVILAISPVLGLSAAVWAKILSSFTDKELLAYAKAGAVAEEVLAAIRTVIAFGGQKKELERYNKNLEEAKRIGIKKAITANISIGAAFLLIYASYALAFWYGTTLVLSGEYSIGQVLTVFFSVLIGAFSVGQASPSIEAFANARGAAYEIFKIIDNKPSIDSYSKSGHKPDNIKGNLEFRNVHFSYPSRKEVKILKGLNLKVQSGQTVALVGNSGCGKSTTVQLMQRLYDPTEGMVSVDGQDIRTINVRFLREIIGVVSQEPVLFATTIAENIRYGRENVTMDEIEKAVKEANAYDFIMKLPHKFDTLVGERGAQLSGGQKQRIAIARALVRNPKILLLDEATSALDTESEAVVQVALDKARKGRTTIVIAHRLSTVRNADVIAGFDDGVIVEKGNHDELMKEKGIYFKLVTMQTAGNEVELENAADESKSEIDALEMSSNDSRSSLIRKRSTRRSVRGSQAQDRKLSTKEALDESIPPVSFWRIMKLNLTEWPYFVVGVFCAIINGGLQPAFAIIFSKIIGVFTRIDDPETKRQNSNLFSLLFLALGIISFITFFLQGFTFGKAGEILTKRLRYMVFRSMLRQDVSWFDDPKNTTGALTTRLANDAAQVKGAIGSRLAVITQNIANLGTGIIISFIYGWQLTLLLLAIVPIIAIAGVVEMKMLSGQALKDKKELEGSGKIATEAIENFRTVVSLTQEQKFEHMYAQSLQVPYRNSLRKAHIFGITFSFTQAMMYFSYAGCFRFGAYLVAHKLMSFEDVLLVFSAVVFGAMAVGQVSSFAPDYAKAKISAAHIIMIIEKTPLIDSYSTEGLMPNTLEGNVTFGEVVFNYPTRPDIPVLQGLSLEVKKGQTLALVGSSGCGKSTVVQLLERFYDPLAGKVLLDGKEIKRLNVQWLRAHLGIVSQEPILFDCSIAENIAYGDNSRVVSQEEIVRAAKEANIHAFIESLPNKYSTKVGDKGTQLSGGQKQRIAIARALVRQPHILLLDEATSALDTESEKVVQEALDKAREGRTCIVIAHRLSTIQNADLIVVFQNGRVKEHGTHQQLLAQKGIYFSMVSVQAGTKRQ
Readout: efflux ratio at 90 min, 1 µM
In your answer, state the number alone without any accompanying words.

Prompt: Any idea what efflux ratio at 90 min, 1 µM came out for Cc1cc(=O)n(-c2ccccc2)n1C [Antipyrine] on MDR1 (Homo sapiens)?
Completion: 1
